Assay: In vivo cytokine assay, plasma of Renca tumor-bearing mice
Parameters: species or system mouse
Conditions: Renca tumor-bearing mice; 6 h; 1.48 mg/kg
Description: Cytokines were measured in mouse plasma harvested at 3, 6, 24, or 48 hours after treatment with compounds or ADCs using a Milliplex MAP mouse cytokine/chemokine magnetic bead panel assay kit (MCYTOMAG-70k custom 11-plex kit: MCP1, MIP1α, MIP1β, TNFα, IFNγ, IL-10, IL-12p70, IL-6, IL-1β, IP10, RANTES) and analyzed using a Luminex™ MAGPIX™ Instrument System. Values that were outside of the standard curve range (<3.2 or […]) were excluded from calculation of the mean values.

| compound | IL1β in plasma, pg/mL |
| --- | --- |
| CCn1nc(C)cc1C(=O)Nc1nc2cc(C(N)=O)cc(O)c2n1C/C=C/Cn1c(NC(=O)c2cc(C)nn2CC)nc2cc(C(N)=O)cc(OC)c21 [Compound 1] | 1.5 |
